- Target System: Beta-3 Adrenergic Receptor (Homo sapiens (Human))
- Assay: Homogeneous Time-Resolved Fluorescence (HTRF) cAMP antagonist assay, IC50 determination
- Condition Notes: CHO-K1 cells stably expressing recombinant receptor, isoproterenol at EC90
pIC50: −log10 of the molar value.
Parameter: pIC50

> print(dat)
                                   compound  parameter  observed.value
1  CNS(=O)(=O)c1cccc(OC[C@@H](O)CNC2COC3(CCN(S(=O)(=O)c4cccc(C)c4F)CC3)C2)c1 (stereo partly drawn)      pIC50            7.84
2  CNS(=O)(=O)c1cccc(OC[C@@H](O)CNC2COC3(CCN(S(=O)(=O)c4cnc5c(c4)N(C)CCO5)CC3)C2)c1 (stereo partly drawn)      pIC50            7.69
3  CNS(=O)(=O)c1cccc(OC[C@@H](O)CNC2COC3(CCN(S(=O)(=O)c4cc(OC)ccc4F)CC3)C2)c1 (stereo partly drawn)      pIC50            7.56

[P] CNS(=O)(=O)c1cccc(OC[C@@H](O)CN[C@@H]2COC3(CCN(S(=O)(=O)c4cccc(-c5ccc(N)nc5)c4)CC3)C2)c1
[Q] CCOc1ccc(-c2ccc(CN)cc2)cc1S(=O)(=O)N1CCC2(CC1)C[C@@H](NC[C@H](O)COc1cccc(S(=O)(=O)NC)c1)CO2
[R] CCNCc1ccc(-c2cccc(S(=O)(=O)N3CCC4(CC3)CC(NC[C@H](O)COc3cccc(S(=O)(=O)NC)c3)CO4)c2)cc1 (stereo partly drawn)
# desc sort on pIC50 across 3 compounds Form entry: labels listed in requested order. Q, P, R
(Q: 7.99, P: 7.69, R: 6.34)

====

- Target System: Beta-3 Adrenergic Receptor (Homo sapiens (Human))
- Assay: Homogeneous Time-Resolved Fluorescence (HTRF) cAMP antagonist assay, IC50 determination
- Condition Notes: CHO-K1 cells stably expressing recombinant receptor, isoproterenol at EC90
Parameter: IC50 (nM)

Compound	IC50 [nM]
CNS(=O)(=O)c1cccc(OC[C@@H](O)CNC2COC3(CCN(S(=O)(=O)c4ccc(F)cc4)CC3)C2)c1 (stereo partly drawn) [Compound 26]	34.1
CCNS(=O)(=O)c1cccc(OC[C@@H](O)CN[C@H]2COC3(CCN(S(=O)(=O)c4cnc5c(c4)N(C)CCO5)CC3)C2)c1 [Compound 456]	16.4
CNS(=O)(=O)c1cccc(OC[C@@H](O)CNC2COC3(CCN(S(=O)(=O)c4ccc(Cl)c(OC)c4)CC3)C2)c1 (stereo partly drawn) [Compound 206]	9.62

[I] O=S(=O)(NCCCO)c1cccc(OC[C@@H](O)CNC2COC3(CCN(S(=O)(=O)c4ccc5ccccc5c4)CC3)C2)c1 (stereo partly drawn) [Compound 51]
[II] CNS(=O)(=O)c1cccc(OC[C@@H](O)CN[C@H]2COC3(CCN(S(=O)(=O)c4cnc5cc(F)ccc5c4O)CC3)C2)c1 [Compound 539]
Looking at recorded values for IC50, does I or II come in lower? Lab note: record the label of whichever item you select. II

====

- Target System: Beta-3 Adrenergic Receptor (Homo sapiens (Human), UniProt P13945)
- Sequence (P13945 whole entry, species assumed): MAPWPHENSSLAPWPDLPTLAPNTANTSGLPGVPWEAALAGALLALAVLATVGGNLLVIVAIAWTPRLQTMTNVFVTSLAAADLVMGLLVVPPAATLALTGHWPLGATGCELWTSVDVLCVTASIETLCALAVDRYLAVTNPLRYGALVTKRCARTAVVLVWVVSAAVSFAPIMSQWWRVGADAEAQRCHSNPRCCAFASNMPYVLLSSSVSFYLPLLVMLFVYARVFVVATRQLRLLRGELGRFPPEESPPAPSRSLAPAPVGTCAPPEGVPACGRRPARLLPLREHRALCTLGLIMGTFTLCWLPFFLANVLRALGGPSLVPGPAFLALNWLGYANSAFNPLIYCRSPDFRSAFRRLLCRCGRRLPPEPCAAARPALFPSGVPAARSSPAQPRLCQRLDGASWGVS
- Assay: Homogeneous Time-Resolved Fluorescence (HTRF) cAMP antagonist assay, IC50 determination
- Condition Notes: CHO-K1 cells stably expressing recombinant receptor, isoproterenol at EC90
Parameter: IC50 (nM)

Take a look at these entries with their results.
> print(dat)
                                   molecule  observed.value
1  CNS(=O)(=O)c1cccc(OC[C@@H](O)CNC2COC3(CCN(S(=O)(=O)c4ccc(OC)cc4C)CC3)C2)c1 (stereo partly shown)            54.9
2  Cc1cc(S(=O)(=O)N2CCC3(CC2)CC(NC[C@H](O)COc2cccc(S(=O)(=O)NCCCN(C)C)c2)CO3)ccc1Br (stereo partly shown)             877

[I] CNS(=O)(=O)c1cccc(OC[C@@H](O)CN[C@H]2COC3(CCN(c4ccccn4)CC3)C2)c1
[II] CNS(=O)(=O)c1cccc(OC[C@@H](O)CN[C@H]2COC3(CCN(S(=O)(=O)c4ccc5[nH]c(=O)[nH]c5c4)CC3)C2)c1
Looking at recorded values for IC50, does I or II come in lower? Lab note: record the label of whichever item you select. II
(II: 73 nM, I: 429 nM)
